I'd be grateful if you could share measured CXCR4 (% Inh) for these entries.
# target.entity: human CXCR4 receptor (Homo sapiens, UniProt P61073)
# Construct: expressed in transfected cells
# Sequence (P61073 whole entry): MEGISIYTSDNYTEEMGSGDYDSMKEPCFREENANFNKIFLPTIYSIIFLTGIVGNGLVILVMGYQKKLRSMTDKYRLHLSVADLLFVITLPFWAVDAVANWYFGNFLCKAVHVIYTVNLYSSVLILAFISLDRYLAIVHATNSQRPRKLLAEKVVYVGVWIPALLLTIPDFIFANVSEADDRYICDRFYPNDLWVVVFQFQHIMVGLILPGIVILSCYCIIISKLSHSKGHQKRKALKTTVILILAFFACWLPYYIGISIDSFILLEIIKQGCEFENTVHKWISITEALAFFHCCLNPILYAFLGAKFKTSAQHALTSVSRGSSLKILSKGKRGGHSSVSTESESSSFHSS
# protocol.summary: Measurement of intracellular Ca+2 responses (FLIPR), antagonism of the SDF-1α response
# Format: cell-based
# condition.parameters: percent antagonism of SDF-1α 1.9 nM (EC65) response; HEK-Gqi5 human CXCR4 cells; value in brackets
Field note: include the unit after the figure.

Use these answered entries as a reference point.
molecule	result
COc1cc2nc(NCCCN(C)C)nc(NC3CCN(Cc4c(OC)cccc4N(C)CCN(C)C)CC3)c2cc1OC [Compound 157]	94%
COc1cccc(N(C)C)c1CN1CCC(Nc2nc(N3CC3)nc3ccccc23)CC1 [Compound 92]	75%

Parameter requested: CXCR4 (% Inh). Apply to each item below.
1. COc1cccc(N(C)C)c1CN1CCC(Nc2nc(NCCCN(C)C)nc3ccc(Br)cc23)CC1 [Compound 146]
2. COc1cccc(N(C)C)c1CN1CCC(Nc2nc(NCCN(C)C)nc3ccccc23)CC1 [Compound 153]
3. COCCCNc1nc(NC2CCN(Cc3c(OC)cccc3N(C)C)CC2)c2ccccc2n1 [Compound 87]
4. COc1cccc(N(C)C)c1CN1CCC(Nc2nc(N3CCN(C)CC3)nc3ccccc23)CC1 [Compound 218]
5. COc1cc2nc(NC[C@@H](O)CO)nc(NC3CCN(Cc4c(OCCN(C)C)cccc4N(C)C)CC3)c2cc1OC [Compound 194]
6. COc1cccc(N(C)C)c1CN1CCC(Nc2nc(NCC(F)(F)F)nc3ccccc23)CC1 [Compound 93]

96%
98%
96%
84%
96%
79%
